# IC50 (neutralization) per record follows
Target: HIV-1 Env of isolate MGRM-F1-016 (subtype F) (HIV-1)
Assay: cell-based or functional assay
Supply the numeric figure in µg/mL, leaving out any unit text.

binder	readout units	recorded number
PGT-123 (antibody, V domains shown) VH: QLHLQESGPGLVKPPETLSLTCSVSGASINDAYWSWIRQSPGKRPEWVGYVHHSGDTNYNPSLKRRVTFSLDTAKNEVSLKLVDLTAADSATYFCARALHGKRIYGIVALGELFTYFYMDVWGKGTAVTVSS VL: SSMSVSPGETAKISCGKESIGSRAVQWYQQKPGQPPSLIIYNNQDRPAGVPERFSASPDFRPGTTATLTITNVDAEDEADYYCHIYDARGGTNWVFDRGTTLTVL	µg/mL	4.95

Okay, now this binder:
Query :: May I ask what IC50 (neutralization) has been recorded for PGT-128 (antibody, V domains shown) VH: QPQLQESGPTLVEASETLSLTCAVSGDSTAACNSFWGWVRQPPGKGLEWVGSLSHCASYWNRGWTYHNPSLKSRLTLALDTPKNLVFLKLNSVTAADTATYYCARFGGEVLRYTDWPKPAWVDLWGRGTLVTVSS VL: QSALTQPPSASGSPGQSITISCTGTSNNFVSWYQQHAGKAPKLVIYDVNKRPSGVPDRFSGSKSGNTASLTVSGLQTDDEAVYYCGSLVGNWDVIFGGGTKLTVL ?
Result :: 1.21
